Test system: RARa homodimer (NR concentration 270 nM)
assay_notes: PBM binding z-score (relative to random genomic background probes); higher = stronger binding; sequences stand for … in GC…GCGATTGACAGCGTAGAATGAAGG
readout_kind: PBM binding z-score
Respond using a number only.

Form field PBM binding z-score, entry ATCTCTAGGTAAAGTTCAGTGACAGATCGATAGA : 2.08

// sample CTCGAAAGGTCGGTTGAGGTGCGTATACGGATAA , its PBM binding z-score was -0.0377

// PBM binding z-score lookup, sequence = ACTAGTTGGTCATCTGAGGTCACACACAATTCGG , result: 1.05

Note to self: PBM binding z-score recorded for AGAATGAGCTTATACGTAGATCAGGGAAGAAAGT was -0.183

Per the record, ATCGAAAGGTTGTGAGGTGAGTATACAGAAAGGC has PBM binding z-score of 0.35

# sequence TCATATAGGAAAATGCTAGGTGAAAGTCCGATCT ; its PBM binding z-score = 1.22

###

Tested on: PPARg:RXRa (NR concentration 180 nM, RXRa partner concentration 90 nM)
assay_notes: PBM binding z-score (relative to random genomic background probes); higher = stronger binding; sequences stand for … in GC…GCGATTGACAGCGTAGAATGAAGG
For each entry below, report its PBM binding z-score value.
Lab note: write the figure by itself, no unit.

PBM binding z-score measured on TAGCCTAGGTCATGCGAGCCAGTATAGTGTCGGC = 2.35

The sequence identified as GATTCAGGGTCAAGGCCAGAGTACGCGTATTGAT registered its PBM binding z-score at 6.43

What the record says about ATCTCTAGGGAAGACTCAGTTCAGTGAAGAACGC : PBM binding z-score is -0.0585

Documented PBM binding z-score of GGAACGAGGGCAAGTTGATGGCAGAGTTTGATGG : 0.994

So for TCTTGTAGATCAATAGAGGTTAAGAAGGTGCGCT , the logged PBM binding z-score turned out to be 0.18

Please fill in: PBM binding z-score reported for TCTTTTAGATCAACAGGAGGTTAAGAAAGATCGA = 0.2

PBM binding z-score recorded for this sequence, GCTATTACTTGAAAGGGCAACCGAATGATTCTCG , is 0.583

Lab book: PBM binding z-score of ACTATTAATTGAGACGAGGGCAACCGATAGGTTG noted as 0.7

Noted for GGAACGAGGGCAAAGTAGATAGCATCTGTCGACG : its PBM binding z-score reads 2.48

Notebook: AGTCAATGTTCACTAGGTAACGTAAGATTCAGCT , PBM binding z-score read as 0.656

Query TCTAGTTGGTCAAAGGTCATACACTCGAAATGCG yields PBM binding z-score of 10.8

# PBM binding z-score of ATCTCTAGCTAACCAAGTTCAGTGAATGCCGAAC = -0.107

PBM binding z-score recorded for this sequence, GAGACTGGGGCAAAGCAGGTTACCATAAGGTTGG , is 2.19

Form field PBM binding z-score, entry TCTTGTAGATCAACAGCAGGTTAAGAAAGATCGA : -0.21

GET /value?item= TGAATGAGGTTATAAGATCAGGTAACGTTGCAAA &field=PBM binding z-score returns 1.42

Reported PBM binding z-score of CGAACTAGGTCATCCAGGACAGCGAATACATTGA : 7.57

Entry ACTATTTGGTCAGCTGAGGTCACACACAATTCGG — recorded PBM binding z-score = 1.86

Recorded result, TCATATAGGTAAACAGGGGAAAGTCCGTAAGTTA , PBM binding z-score: 1.52

Entry CAAACTAGGTCACAGAGGTCCAAGTCCGTGCGTA , PBM binding z-score reported as 8.72

Briefly, PBM binding z-score measured for CAAACTAGGTCAATGTCAAAGTCGGTTTGTGCCA : 7.78

Sure, the documented PBM binding z-score for AGAACGAGGGCACGCTGAGTTGATAGCCGAGTAG is 2.04

Form field PBM binding z-score, entry TCTCGGAGCACACGAAGGTCAGAGCTTTCCAGAG : 0.118

What the record says about TCTAGTTGGTCAGAGGTCACACACTCGAAATGCG : PBM binding z-score is 9.31

PBM binding z-score reading for GCTCGGAGGACAAGGTCAGAGCTTTGTCCGTAGA : 0.957

For this sequence ( GGTGCTAGGTCAACTGATGGTCAGCTAAAGCTCG ), measured PBM binding z-score is 3.55

The recorded PBM binding z-score for TCATATAGGTAAACAGGTGAAAGGCCGTAAGTTA is 5.16

###

Test system: RARg:RXRa (NR concentration 270 nM, RXRa partner concentration 90 nM)
assay_notes: PBM binding z-score (relative to random genomic background probes); higher = stronger binding; sequences stand for … in GC…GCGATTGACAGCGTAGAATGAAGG
Could you please report measured PBM binding z-score for the items listed next?

Form field PBM binding z-score, entry TCGAGTAGGTTACCAATGGTGCATTCAGCTTTCT : 0.138

Reported PBM binding z-score for CCTATTTGGTCAAGGTCACACACGCTATAGGTAC was 4.63

Given item CGTCAAAGTTCAAAGTAACGTAACAGAAAGCAGC , the value recorded as its PBM binding z-score is 5.52

The reported value for TCCTATAGGTAAAGGTGAAAGTCGAACGATATGA in terms of PBM binding z-score is 1.47

// field: PBM binding z-score; key: CCTACTGGGCCCTTCAGAGGTCATTGATCATATG ; value = 3.27

Entry GCTATTAGTGGAAAGGGCAACCGAATGATTCTCG , PBM binding z-score reported as 1.05

Value of PBM binding z-score reported for the sequence CCGACTGGGGCAGAATGGTTACCATACCATCCGG is 0.00778

The sequence listed as CAAACTAGGTCAAGAGGTAAAAGTCCGCTTCCCG shows PBM binding z-score equal to 4.71

Measured PBM binding z-score, GCAGACAGGTGAAACACAGGTAACTCAGGGTGGC : 1.37

The reported PBM binding z-score of the sequence GCTAGCAGGGCATTTGGGTCACTCAATGACGGGC was 1.32

response.value for TGAATGAGGTTAAAGATTAGGGAACGTGGCGTCG (field: PBM binding z-score) = 1.91

Just so you know, measured PBM binding z-score for TCTTGTAGATCAAGCAGGTTTAGAAAGCCTGAGT came out at -0.361

###

System: RXRa homodimer (NR concentration 180 nM)
assay_notes: PBM binding z-score (relative to random genomic background probes); higher = stronger binding; sequences stand for … in GC…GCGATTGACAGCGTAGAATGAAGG
// bucketize PBM binding z-score: class A: < 1; class B: ≥ 1 and < 5; class C: ≥ 5

## Task Into which category would you place CAAACTAGTTCAAAGGTCAAAGTCGAGCCAACCA ?
## Result class C

## Task For the record ACTTACGGGACAACGAGGTTATAGCACGCGTATA , report the class its PBM binding z-score corresponds to.
## Result class B

## Task Class for CCTCGGAGGACATAAGGTCAGAGCTGTCCGCTTT ?
## Result class B

## Task Assign a bin to ATCCAAAGGTCGAAGGTGAGTATACCCACCCGAA
## Result class C

## Task Field: class (PBM binding z-score) — entry: ATCGACAGGTCGAAGGTGAGTATACCCACCCGAA
## Result class B

## Task Which band does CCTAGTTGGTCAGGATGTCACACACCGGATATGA fall in?
## Result class A

## Task Lab note: which band did ATACCAAGGTGATCGTGAGGTCGTTAATACTAAC land in?
## Result class B

## Task Bin this entry: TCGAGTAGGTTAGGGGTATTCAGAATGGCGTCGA
## Result class A

## Task Hello team, could you let me know which band the following sequence falls into: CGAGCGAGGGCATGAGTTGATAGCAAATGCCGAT
## Result class B

## Task In plain terms, what class is TAGCCTAGGTCATTCATGGGCCAGTATAGAAAGC ?
## Result class B

## Task Sort CATACAGGGTCAGCTAGGGCAGAGTAGGGACGGC into one of the categories.
## Result class B

## Task For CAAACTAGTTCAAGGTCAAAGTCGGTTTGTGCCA , which PBM binding z-score bin applies?
## Result class B

## Task Form: Item = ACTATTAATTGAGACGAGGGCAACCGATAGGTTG ; Class = ?
## Result class A

## Task Could you place TATATAGGGTCAAAGGCCAGAGTACGAATGTCGA in its proper category? Many thanks.
## Result class C

## Task # bin label for CCTACTGGGCTATCAGGTCATTGATATCAACGTT
## Result class A

## Task Assign a bin to AGTCAAAGTTCATCTAGGTAATGTAAGATATGCT
## Result class B

## Task Could you place CCTGCTAGGTCAATCGTCAGCTAAAGCAGCTCGC in its proper category? Many thanks.
## Result class B

## Task Which category fits this record: CCTAGCAGGCCAGGGTCACTCAAGCATTTCGCTT
## Result class B

## Task Category lookup for the sequence CCGACTGGGCCAAAAAGGTCATTGATGCCGATAA
## Result class B

## Task Class (by measured PBM binding z-score) for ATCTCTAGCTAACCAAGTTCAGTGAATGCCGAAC
## Result class A

## Task Any idea which band AGAATGTGGTTATACGTAGATCAGGGAAGAAAGT is in?
## Result class A

## Task Please indicate the class for CGTCCAAGGTCGGCAGGTCAGTGAAAGCGACGTG based on its PBM binding z-score.
## Result class B

## Task Sort TCATATAGGTAATACAGGTGAAAGCCGGCATCTA into one of the categories.
## Result class B

## Task Hi, small favor: classify ATATGTAGGTTAAGGGTCATTCAGGTTGGTTCGC by its PBM binding z-score when you get a moment.
## Result class C
